From: the NIST ThermoML archive (doi:10.1016/j.tca.2008.10.015)

settings: 328.2 K; 101.33 kPa; Liquid; conductivity meter
What electrical conductivity was measured for each of the following?
Answers are plain numbers, in S/m.

Example entries and their recorded answers appear below.
* CCCCn1cc[n+](C)c1.F[B-](F)(F)F [1-butyl-3-methylimidazolium tetrafluoroborate] | 0.783
* CCCCn1cc[n+](C)c1.COS(=O)(=O)[O-] [1-butyl-3-methylimidazolium methyl sulfate] | 0.626
* CCCCn1cc[n+](C)c1.O=S(=O)([O-])C(F)(F)F [1-butyl-3-methylimidazolium trifluoromethanesulfonate] | 0.619

Continue with the next compound.
stdin: Quick one: electrical conductivity for CCCCn1cc[n+](C)c1.F[P-](F)(F)(F)(F)F [1-butyl-3-methylimidazolium hexafluorophosphate] ?
stdout: 0.383

---

What molar heat capacity at constant pressure was measured for each of the following?
test: molar heat capacity at constant pressure; details: 313.2 K; 101.33 kPa; Liquid; Small sample (50 mg) DSC
Give bare numbers, in J/K/mol.

- CCCCn1cc[n+](C)c1.O=S(=O)([O-])C(F)(F)F [1-butyl-3-methylimidazolium trifluoromethanesulfonate]: 446.85
- CCCCn1cc[n+](C)c1.COS(=O)(=O)[O-] [1-butyl-3-methylimidazolium methyl sulfate]: 382.98
- CCCCn1cc[n+](C)c1.F[P-](F)(F)(F)(F)F [1-butyl-3-methylimidazolium hexafluorophosphate]: 420.59

Continue with the next compound.
stdin: Quick one: molar heat capacity at constant pressure for CCCCn1cc[n+](C)c1.F[B-](F)(F)F [1-butyl-3-methylimidazolium tetrafluoroborate] ?
stdout: 372.94

---

assay: molar heat capacity at constant pressure; details: 303.2 K; 101.33 kPa; Liquid; Small sample (50 mg) DSC
What molar heat capacity at constant pressure was measured for each of the following?
Answers are plain numbers, in J/K/mol.

* CCCCn1cc[n+](C)c1.O=S(=O)([O-])C(F)(F)F [1-butyl-3-methylimidazolium trifluoromethanesulfonate] | 443.96
* CCCCn1cc[n+](C)c1.COS(=O)(=O)[O-] [1-butyl-3-methylimidazolium methyl sulfate] | 375.47
* CCCCn1cc[n+](C)c1.F[B-](F)(F)F [1-butyl-3-methylimidazolium tetrafluoroborate] | 368.42

Continue with the next molecule.
stdin: Quick one: molar heat capacity at constant pressure for CCCCn1cc[n+](C)c1.F[P-](F)(F)(F)(F)F [1-butyl-3-methylimidazolium hexafluorophosphate] ?
stdout: 412.06

---

What molar heat capacity at constant pressure was measured for each of the following?
assay: molar heat capacity at constant pressure; settings: 328.2 K; 101.33 kPa; Liquid; Small sample (50 mg) DSC
Give bare numbers, in J/K/mol.

- CCCCn1cc[n+](C)c1.O=S(=O)([O-])C(F)(F)F [1-butyl-3-methylimidazolium trifluoromethanesulfonate]: 452.61
- CCCCn1cc[n+](C)c1.COS(=O)(=O)[O-] [1-butyl-3-methylimidazolium methyl sulfate]: 387.99
- CCCCn1cc[n+](C)c1.F[B-](F)(F)F [1-butyl-3-methylimidazolium tetrafluoroborate]: 379.72

Continue with the next molecule.
stdin: Quick one: molar heat capacity at constant pressure for CCCCn1cc[n+](C)c1.F[P-](F)(F)(F)(F)F [1-butyl-3-methylimidazolium hexafluorophosphate] ?
stdout: 426.27

---

experiment: molar heat capacity at constant pressure; conditions: 348.2 K; 101.33 kPa; Liquid; Small sample (50 mg) DSC
± gives the expanded uncertainty stated by the source.
What molar heat capacity at constant pressure was measured for each of the following?
The number alone won't do; follow it with the unit.

• CCCCn1cc[n+](C)c1.F[B-](F)(F)F [1-butyl-3-methylimidazolium tetrafluoroborate] = 388.76 ± 6.8 J/K/mol
• CCCCn1cc[n+](C)c1.COS(=O)(=O)[O-] [1-butyl-3-methylimidazolium methyl sulfate] = 398 ± 7.5 J/K/mol
• CCCCn1cc[n+](C)c1.O=S(=O)([O-])C(F)(F)F [1-butyl-3-methylimidazolium trifluoromethanesulfonate] = 464.14 ± 12 J/K/mol

Continue with the next compound.
stdin: Quick one: molar heat capacity at constant pressure for CCCCn1cc[n+](C)c1.F[P-](F)(F)(F)(F)F [1-butyl-3-methylimidazolium hexafluorophosphate] ?
stdout: 440.48 ± 11 J/K/mol
